These measurements were taken from ChEMBL document CHEMBL3864162.

- Protocol Summary: Intrinsic clearance in CD1 mouse liver microsomes assessed per gram of liver at 1 uM in presence of NADPH regenerating system measured up to 45 mins by UPLC/MS/MS analysis
- Assay type: ADME
- Details: 0.75 h
I'd be grateful if you could share measured CLH for these entries.
Numbers only; they are read as mL/min/g.

Request: Item C[C@H](NC(=O)CCc1nc2cccnc2n1Cc1ccc(OC(F)F)cc1)c1ccc(Cl)cc1 : provide CLH
Result: 52.8

Request: Answer with the recorded CLH for the compound listed here: C[C@H](NC(=O)C[S+]([O-])c1nc2cccnc2n1Cc1ccc(OC(F)(F)F)cc1)c1ccc(F)cc1 (stereo in doubt; 26a)
Result: 28.6

Request: Provide only the value of recorded CLH for O=C(CCc1nc2cccnc2n1Cc1ccccc1)NCC1CCCCC1
Result: 30.8
